Just for reference, patent US8791144B2 is where these values come from.

Target: UniProtKB P36544
Assay: Ca2+ flux imaging (FDSS): potentiation of the choline response
Type: cell-based
Conditions: Ca2+ assay as described in D.1; potentiation of choline response, hα7-wt nAChR; read-out: Potency (pEC50) (converted)
Outcome Measure: EC50 (nM)

// below: answered molecules
Cc1cc(-n2nc(Nc3cccc(Cl)c3F)cc2CC(=O)NCC2CC2)cc(C)n1 95.5
CC[C@H](O)Cc1cc(Nc2cccc(OC(F)(F)F)c2)nn1-c1ccnc(C)c1 1820

(P) COc1cc(Nc2cc(CC#N)n(-c3ccnc(C)c3)n2)cc(C(F)(F)F)c1
(Q) COc1cc(Nc2cc(CCC(=O)N(C)C)n(-c3ccnc(C)c3)n2)cc(C(F)(F)F)c1
### Prompt Please compare: P and Q . Report which one has the smaller EC50 value. Lab note: record the label of whichever item you select.
### Response Q
(Q: 170 nM, P: 1950 nM)

* * *

Outcome Measure: melting point (°C)

COc1cc(Nc2cc(CC#N)n(-c3ccnc(C)c3)n2)cc(C(F)(F)F)c1 183.8
CC[C@H](O)Cc1cc(Nc2ccc(OC)c(C(F)(F)F)c2)nn1-c1ccnc(C)c1 129

(a) Cc1cc(-n2nc(Nc3ccc4c(c3)OC(F)(F)O4)cc2CC(=O)NCC2CC2)ccn1
(b) CC[C@H](O)Cc1cc(Nc2cc(Cl)cc(OC)c2)nn1-c1ccnc(C)c1
### Prompt # returns the entry with the larger melting point; inputs a and b // return label of chosen record
### Response a

* * *

Outcome Measure: melting point (°C)

Solved cases (3 shown):
Cc1cc(-n2nc(Nc3ccc(F)c(F)c3)cc2CO)ccn1 155.3
CC[C@H](O)Cc1cc(Nc2ccc(F)c(F)c2)nn1-c1ccnc(C)c1 163.2
CC[C@@H](O)Cc1cc(Nc2ccc(F)c(F)c2)nn1-c1ccnc(C)c1 164.7

(I) CNC(=O)Cc1cc(Nc2cccc(OC(F)(F)F)c2)nn1-c1ccnc(C)c1
(II) Cc1cc(-n2nc(Nc3ccc4c(c3)OC(F)(F)O4)cc2CCC(=O)N(C)C)ccn1
### Prompt Which has the higher melting point, I or II ? I would appreciate it if you answered with the label of your choice.
### Response I

* * *

Biological target: hα7-wt nAChR (Homo sapiens, UniProt P36544)
Sequence (P36544 23-502): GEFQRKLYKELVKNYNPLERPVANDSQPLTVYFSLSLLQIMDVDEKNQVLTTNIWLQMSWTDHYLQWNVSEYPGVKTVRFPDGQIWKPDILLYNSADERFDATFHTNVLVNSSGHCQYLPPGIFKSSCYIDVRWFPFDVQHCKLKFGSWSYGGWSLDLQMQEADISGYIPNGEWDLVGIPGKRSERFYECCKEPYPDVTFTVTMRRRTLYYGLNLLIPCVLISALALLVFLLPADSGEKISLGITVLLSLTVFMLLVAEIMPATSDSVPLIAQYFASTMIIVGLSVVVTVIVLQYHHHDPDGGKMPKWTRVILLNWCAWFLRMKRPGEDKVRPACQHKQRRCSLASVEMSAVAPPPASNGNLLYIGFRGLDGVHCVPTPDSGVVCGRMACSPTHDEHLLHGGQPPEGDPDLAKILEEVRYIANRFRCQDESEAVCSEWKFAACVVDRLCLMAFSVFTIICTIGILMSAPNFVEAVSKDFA
Assay: Ca2+ flux imaging (FDSS): potentiation of the choline response
Format: cell-based
Settings: Ca2+ assay as described in D.1; potentiation of choline response, hα7-wt nAChR; read-out: Potency (pEC50) (converted)
Outcome Measure: EC50 (µM)

Compound	Outcome Measure	Endpoint Value
CC[C@H](O)Cc1cc(Nc2cccc(C(F)(F)F)c2)nn1-c1ccnc(C)c1 [Compound 37]	EC50	2.29
COc1cc(Cl)cc(Nc2cc(CC(=O)NC3CC3)n(-c3ccnc(C)c3)n2)c1 [Compound 77]	EC50	0.603

(1) CC[C@H](O)Cc1cc(Nc2ccc(Br)cc2C#N)nn1-c1ccnc(C)c1 [Compound 124]
(2) Cc1cc(-n2nc(Nc3cccc(Cl)c3F)cc2CC(=O)NC2CCC2)ccn1 [Compound 82]
(3) Cc1cc(-n2nc(Nc3cccc(Cl)c3F)cc2CC(=O)NCC2CC2)ccn1 [Compound 79]
(4) CNC(=O)Cc1cc(Nc2ccc3c(c2)OC(F)(F)O3)nn1-c1ccnc(C)c1 [Compound 97]
### Prompt Arrange these compounds by their EC50, starting with the largest number. Ranked list of labels, please, in the requested order.
### Response 4, 1, 2, 3

(P) CNC(=O)Cc1cc(Nc2cc(Cl)cc(OC)c2)nn1-c1ccnc(C)c1 [Compound 72]
(Q) CC[C@H](O)Cc1cc(Nc2cc(OC)cc(C(F)(F)F)c2)nn1-c1ccnc(C)c1 [Compound 39]
### Prompt Looking at P and Q , which one comes out lower in EC50 terms? Pick one and reply with its label.
### Response Q
(Q: 0.933 µM, P: 1.82 µM)

* * *

Listed here are compounds together with their documented PAM type.
Target: hα7-wt nAChR (Homo sapiens)
Assay: Patch-clamp current recording (whole-cell voltage clamp), potentiation of choline current and PAM type
Assay type: cell-based
Design: key: Type 0 compounds minimally enhance the effect size of the current elicited by 1 mM choline.; Type 1 compounds enhance the effect size of the current elicited by 1 mM choline but minimally alter the kinetics of the receptor.; Type 2 compounds enhance the effect size of the current elicited by 1 mM choline while reducing the rate and/or the extent of desensitization.; Type 3 compounds enhance the effect size of the current elicited by 1 mM choline. When tested at higher concentrations up to 10 μM they completely inhibit desensitization, in particular a 1 mM choline application of 250 milliseconds.; Type 4 compounds allow for an initial desensitization of the receptor followed by a re-opening of the receptor during agonist application
Settings: hα7-wt nAChR-expressing GH4C1 cells, 1 mM choline
Reply with the value as a number alone.

The cases that follow already have their PAM type on record.
CNC(=O)Cc1cc(Nc2cc(OC)cc(C(F)(F)F)c2)nn1-c1ccnc(C)c1 4
Cc1cc(-n2nc(Nc3cccc(C(F)(F)F)c3)cc2CCC(=O)N(C)C)ccn1 4

### Prompt So what's the measured PAM type for this one? Cc1cc(-n2nc(Nc3cccc(Cl)c3F)cc2CC(=O)NC2CC2)cc(C)n1
### Response 2

### Prompt # query: PAM type of entry COc1cc(Nc2cc(CCC(=O)N(C)C)n(-c3ccnc(C)c3)n2)cc(C(F)(F)F)c1
### Response 4

### Prompt Entry under review: Cc1cc(-n2nc(Nc3cccc(C(F)(F)F)c3)cc2CC(=O)NCC2CC2)ccn1 . Reported PAM type?
### Response 4

### Prompt Fill in the blank: the reported PAM type of Cc1cc(-n2nc(Nc3ccc(F)c(F)c3)cc2CC(=O)NCC2CC2)ccn1 is ____.
### Response 2

### Prompt Consider the compound shown here: COc1cc(Cl)cc(Nc2cc(CC(=O)NC3CC3)n(-c3ccnc(C)c3)n2)c1 What is its recorded PAM type?
### Response 4

* * *

Biological target: hα7-wt nAChR (Homo sapiens)
Assay: Ca2+ flux imaging (FDSS): potentiation of the choline response
Type: cell-based
Details: Ca2+ assay as described in D.1; potentiation of choline response, hα7-wt nAChR; read-out: Potency (pEC50) (converted)
Outcome Measure: EC50 (nM)

Cc1cc(-n2nc(Nc3ccc(F)c(F)c3)cc2CCCOCc2ccccc2)ccn1 1020
Cc1cc(-n2nc(Nc3cccc(OC(F)(F)F)c3)cc2CC(=O)NC(C)C)ccn1 389
CC[C@@H](O)Cc1cc(Nc2cc(OC)cc(C(F)(F)F)c2)nn1-c1ccnc(C)c1 162
COc1cc(Cl)cc(Nc2cc(CCC(=O)N(C)C)n(-c3ccnc(C)c3)n2)c1 295
Cc1cc(-n2nc(Nc3cccc(Cl)c3F)cc2CCC(=O)N(C)C)ccn1 661

(a) CC[C@@H](O)Cc1cc(Nc2cc(Cl)cc(OC)c2)nn1-c1ccnc(C)c1
(b) Cc1cc(-n2nc(Nc3cccc(C(F)(F)F)c3)cc2CCC(=O)N(C)C)ccn1
### Prompt Looking at a and b , which one comes out lower in EC50 terms? Mark your answer with the label of the selected entry.
### Response b

(I) Cc1cc(-n2nc(Nc3ccc4c(c3)OC(F)(F)O4)cc2CCC(=O)N(C)C)ccn1
(II) COc1cc(Nc2cc(CCCO)n(-c3ccnc(C)c3)n2)cc(C(F)(F)F)c1
(III) CC[C@H](O)Cc1cc(Nc2cc(Cl)cc(OC)c2)nn1-c1ccnc(C)c1
### Prompt Sort the compounds on EC50; start with the lowest figure. Sort and list the labels as requested.
### Response I, III, II
(I: 490 nM, III: 794 nM, II: 2880 nM)

* * *

Target: hα7-wt nAChR (Homo sapiens, UniProt P36544)
Assay: Patch-clamp current recording (whole-cell voltage clamp), potentiation of choline current and PAM type
Type: cell-based
Design: key: Type 0 compounds minimally enhance the effect size of the current elicited by 1 mM choline.; Type 1 compounds enhance the effect size of the current elicited by 1 mM choline but minimally alter the kinetics of the receptor.; Type 2 compounds enhance the effect size of the current elicited by 1 mM choline while reducing the rate and/or the extent of desensitization.; Type 3 compounds enhance the effect size of the current elicited by 1 mM choline. When tested at higher concentrations up to 10 μM they completely inhibit desensitization, in particular a 1 mM choline application of 250 milliseconds.; Type 4 compounds allow for an initial desensitization of the receptor followed by a re-opening of the receptor during agonist application
Conditions: hα7-wt nAChR-expressing GH4C1 cells, 1 mM choline
Catalogue of PAM type values
Lab note: record just the number, no unit beside it.

Here's what some known entries look like.
Cc1cc(-n2nc(Nc3cccc(OC(F)(F)F)c3)cc2CC(=O)NC2CC2)cc(C)n1 2
Cc1cc(-n2nc(Nc3cccc(OC(F)(F)F)c3)cc2CC(=O)NC(C)C)cc(C)n1 2
Cc1cc(-n2nc(Nc3cccc(OC(F)(F)F)c3)cc2CC(=O)NC(C)C)ccn1 1
CC[C@H](O)Cc1cc(Nc2ccc(OC)c(C(F)(F)F)c2)nn1-c1ccnc(C)c1 2
COc1cc(Nc2cc(CC(=O)NCC3CC3)n(-c3ccnc(C)c3)n2)cc(C(F)(F)F)c1 4

### Prompt What does the record list as PAM type for Cc1cc(-n2nc(Nc3ccc4c(c3)OC(F)(F)O4)cc2CC(=O)NC2CCC2)ccn1 ?
### Response 2
